- target-under-test: T1, cynomolgus IL-2Rγ (recombinant protein and on cells) (cynomolgus, UniProt A0A2K5VGJ6 23-254)
- T1 construct: also called cynomolgus IL-2RG
- T1 sequence: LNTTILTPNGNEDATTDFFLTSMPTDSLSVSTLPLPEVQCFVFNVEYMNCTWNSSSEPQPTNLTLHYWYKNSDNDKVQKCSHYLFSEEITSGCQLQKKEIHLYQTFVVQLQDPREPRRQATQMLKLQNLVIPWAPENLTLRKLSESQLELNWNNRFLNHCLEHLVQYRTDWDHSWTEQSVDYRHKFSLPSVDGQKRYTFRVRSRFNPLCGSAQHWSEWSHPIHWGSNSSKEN
- method-description: biolayer interferometry (Octet Qk384), antibody captured on anti-human Fc (AHC) sensors, antigen 7.8-500 nM in solution, 1:1 fit, KD = kd/ka
Collected pKd values appear next to each entry.
Units for pKd: none; it is -log10 of a concentration expressed in mol/L.

- binder: "BsAb-5 (IL2RB_F09K**IL2RG_F16B) (bispecific antibody, human IgG4, V domains shown, Heavy chain-only bispecific on silenced, stabilised human IgG4 Fc, knobs-into-holes, no light chains; not shown: C-terminal His-tag on the knob chain) V domain 1: QVQLQESSPGLVKPSETLSLTCTVSGGSISSSNWWSWVRQPPGKGLEWIGEISHSGSTNYNPSLKSRVTISVDKSKNQFSLRLSSVTAADTAVYFCGRGSWELTDAFDIRGQGTLVTVSS V domain 2: QVQLVESGGGLVKPGGSLRLSCAASGFTFSDYYMSWIRQAPGKGLEWVSYISSSGSTIYYADSVKGRFTISRDNAKNSLYLQMNSLRAEDTAVYYCARGDAVSITGDYRGQGTLVTVSS"
  pKd: 7.38

Returns the measured pKd for the input binder. Input: BsAb-2 (IL2RB_F09G**IL2RG_F16B) (bispecific antibody, human IgG4, V domains shown, Heavy chain-only bispecific on silenced, stabilised human IgG4 Fc, knobs-into-holes, no light chains; not shown: C-terminal His-tag on the knob chain) V domain 1: QVQLQESGPGLVKSSETLSLTCTVSGGSISSSDWWSWVRQPPGKGLEWIGEIDHSGSTNYNPSLMSRVTISVDKSKNQFSLKLSSVTAADTAVYFCARGSWELTDAFDIRGQGTLVTVSS V domain 2: QVQLVESGGGLVKPGGSLRLSCAASGFTFSDYYMSWIRQAPGKGLEWVSYISSSGSTIYYADSVKGRFTISRDNAKNSLYLQMNSLRAEDTAVYYCARGDAVSITGDYRGQGTLVTVSS
7.30

Please give the result for BsAb-6 (IL2RB_F18E**IL2RG_F16A) (bispecific antibody, human IgG4, V domains shown, Heavy chain-only bispecific on silenced, stabilised human IgG4 Fc, knobs-into-holes, no light chains; not shown: C-terminal His-tag on the knob chain) V domain 1: QVQLVESGGGVVQPGRSLRLSCAASGFTFSSYGMHWVRQAPGKEREWVAVISYDGSNKYYTDSVKGRFTISRDNSKNTLYLEMNSLRAEDTAVYYCARDLDYDVLTGDPVGGFDIWGQGTLVTVSS V domain 2: QVQLVESGGGLVKPGGSLRLSCAASGFTFSDYYMSWIRQAPGKGLEWVSSISSSGDTIYYADSVQGRFTLSRDNAENSLFLQMNSLRAEDTAVYYCARGDAVSITGDYRGQGTLVTVSS too.
8.27
